- System: Human immunodeficiency virus 1
- experiment-summary: Antiviral activity against HIV1 3B with reverse transcriptase Lys103 Asn mutation
- Assay type: functional, organism-based
- test-parameters: Human immunodeficiency virus 1, 3B
measured-metric: EC50 (µM)

chemical_structure=Cc1cc(C)nc(N2C(=O)CS[C@@H]2C23CC4CC(CC(C4)C2)C3)c1 system_tested="Human immunodeficiency virus 1" measured_metric=EC50 assay_value=1.5

###

- system-tested: Human immunodeficiency virus type 1 reverse transcriptase (Human immunodeficiency virus 1, UniProt Q72547)
- experiment-summary: Inhibition of HIV1 reverse transcriptase using Poly rC.dG template
Each entry below carries its recorded IC50.
measured-metric: IC50 (µM)

compound="Cc1cc(C)nc(N2C(=O)CSC2C)c1 (stereo unspecified)" measured_metric=IC50 reported_relation=≥ assay_value=900
compound="CN(C)CCCN1C(=O)CSC1C12CC3CC(CC(C3)C1)C2 (stereo unspecified)" measured_metric=IC50 reported_relation=≥ assay_value=620
compound="O=C1CSC(C23CC4CC(CC(C4)C2)C3)N1c1cccnc1 (stereo unspecified)" measured_metric=IC50 reported_relation=≥ assay_value=636
compound="Cc1cc(C)nc(N2C(=O)CSC2C23CC4CC(CC(C4)C2)C3)c1 (stereo unspecified)" measured_metric=IC50 reported_relation== assay_value=29
compound=Cc1cc(C)nc(N2C(=O)CS[C@@H]2C23CC4CC(CC(C4)C2)C3)c1 measured_metric=IC50 reported_relation== assay_value=19
compound=Cc1cc(C)nc(N2C(=O)CS[C@H]2C23CC4CC(CC(C4)C2)C3)c1 measured_metric=IC50 reported_relation=> assay_value=584
compound="CN(C)CCN1C(=O)CSC1C12CC3CC(CC(C3)C1)C2 (stereo unspecified)" measured_metric=IC50 reported_relation=> assay_value=648
compound="Cc1ccnc(N2C(=O)CSC2C23CC4CC(CC(C4)C2)C3)c1 (stereo unspecified)" measured_metric=IC50 reported_relation== assay_value=40
compound="Cc1cccc(N2C(=O)CSC2C23CC4CC(CC(C4)C2)C3)n1 (stereo unspecified)" measured_metric=IC50 reported_relation== assay_value=40
compound="CCN(CC)CCCN1C(=O)CSC1C12CC3CC(CC(C3)C1)C2 (stereo unspecified)" measured_metric=IC50 reported_relation=> assay_value=571
compound="CCN(CC)CCN1C(=O)CSC1C12CC3CC(CC(C3)C1)C2 (stereo unspecified)" measured_metric=IC50 reported_relation== assay_value=475

###

- System: Human immunodeficiency virus 1
- experiment-summary: Antiviral activity against HIV1 3B with reverse transcriptase Tyr181Ile mutation
- Assay type: functional, organism-based
- test-parameters: Human immunodeficiency virus 1, 3B
measured-metric: EC50

chemical_structure=Cc1cc(C)nc(N2C(=O)CS[C@@H]2C23CC4CC(CC(C4)C2)C3)c1 system_tested="Human immunodeficiency virus 1" assay_value="> 12 µM"

###

- system-tested: Human immunodeficiency virus type 1 reverse transcriptase (Human immunodeficiency virus 1, UniProt Q72547)
- experiment-summary: Inhibition of HIV1 reverse transcriptase using Poly rA.dT template
Measured IC50, listed per entry for reference.
measured-metric: IC50 (µM)

compound="Cc1cc(C)nc(N2C(=O)CSC2C)c1 (stereo not given)" measured_metric=IC50 unit_spec=µM reported_relation=> assay_value=900
compound="CCN(CC)CCN1C(=O)CSC1C12CC3CC(CC(C3)C1)C2 (stereo not given)" measured_metric=IC50 unit_spec=µM reported_relation== assay_value=481
compound="Cc1cc(C)nc(N2C(=O)CSC2C23CC4CC(CC(C4)C2)C3)c1 (stereo not given)" measured_metric=IC50 unit_spec=µM reported_relation== assay_value=38
compound="O=C1CSC(C23CC4CC(CC(C4)C2)C3)N1c1cccnc1 (stereo not given)" measured_metric=IC50 unit_spec=µM reported_relation=≥ assay_value=636
compound="CCN(CC)CCCN1C(=O)CSC1C12CC3CC(CC(C3)C1)C2 (stereo not given)" measured_metric=IC50 unit_spec=µM reported_relation=> assay_value=571

###

- system-tested: Human immunodeficiency virus type 1 reverse transcriptase (Human immunodeficiency virus 1, UniProt Q72547)
measured-metric: Ki

chemical_structure=Cc1cc(C)nc(N2C(=O)CS[C@@H]2C23CC4CC(CC(C4)C2)C3)c1 measured_metric=Ki assay_value="12 µM"

###

Reported values of CC50 for individual entries
- experiment-summary: Cytotoxicity against CEM cells
- Type: cell-based
- test-parameters: human, CEM (CCRF-CEM) cells
measured-metric: CC50 (µM)

molecule="O=C1CSC(C23CC4CC(CC(C4)C2)C3)N1CCN1CCCCC1 (stereo not drawn)" unit_spec=µM reported_relation== assay_value=44
molecule="Cc1cc(C)nc(N2C(=O)CSC2C23CC4CC(CC(C4)C2)C3)c1 (stereo not drawn)" unit_spec=µM reported_relation== assay_value=42
molecule="N#Cc1ccc(N2C(=O)CSC2C23CC4CC(CC(C4)C2)C3)cc1 (stereo not drawn)" unit_spec=µM reported_relation=≥ assay_value=295
molecule="Cc1ccc(N2C(=O)CSC2C23CC4CC(CC(C4)C2)C3)nc1 (stereo not drawn)" unit_spec=µM reported_relation== assay_value=59
molecule="O=C1CSC(C23CC4CC(CC(C4)C2)C3)N1c1ccc(F)cc1 (stereo not drawn)" unit_spec=µM reported_relation=≥ assay_value=302
molecule="Cc1cccnc1N1C(=O)CSC1C12CC3CC(CC(C3)C1)C2 (stereo not drawn)" unit_spec=µM reported_relation== assay_value=29
molecule="CN(C)CCCN1C(=O)CSC1C12CC3CC(CC(C3)C1)C2 (stereo not drawn)" unit_spec=µM reported_relation== assay_value=122
molecule=Cc1cc(C)nc(N2C(=O)CS[C@@H]2C23CC4CC(CC(C4)C2)C3)c1 unit_spec=µM reported_relation== assay_value=35
molecule="Cc1cc(C)nc(N2C(=O)CSC2C)c1 (stereo not drawn)" unit_spec=µM reported_relation=> assay_value=450
molecule="O=C1CSC(C23CC4CC(CC(C4)C2)C3)N1c1ccc(Br)cc1 (stereo not drawn)" unit_spec=µM reported_relation=≥ assay_value=255
molecule="CCN(CC)CCN1C(=O)CSC1C12CC3CC(CC(C3)C1)C2 (stereo not drawn)" unit_spec=µM reported_relation== assay_value=56
molecule="COc1ccc(N2C(=O)CSC2C23CC4CC(CC(C4)C2)C3)cc1 (stereo not drawn)" unit_spec=µM reported_relation== assay_value=74
molecule="CCN(CC)CCCN1C(=O)CSC1C12CC3CC(CC(C3)C1)C2 (stereo not drawn)" unit_spec=µM reported_relation== assay_value=89
molecule="Cc1ccnc2c1NC(=O)c1cccnc1N2C1CC1 [NEVIRAPINE]" unit_spec=µM reported_relation=> assay_value=50
molecule="O=C1CSC(C23CC4CC(CC(C4)C2)C3)N1c1ccc(I)cc1 (stereo not drawn)" unit_spec=µM reported_relation=≥ assay_value=228
molecule="Cc1cccc(N2C(=O)CSC2C23CC4CC(CC(C4)C2)C3)n1 (stereo not drawn)" unit_spec=µM reported_relation=> assay_value=304
molecule="CN(C)CCN1C(=O)CSC1C12CC3CC(CC(C3)C1)C2 (stereo not drawn)" unit_spec=µM reported_relation== assay_value=125
molecule="O=c1[nH]cnc2c1ncn2[C@H]1CC[C@@H](CO)O1 [DIDANOSINE]" unit_spec=µM reported_relation=> assay_value=250
molecule="O=C1CSC(C23CC4CC(CC(C4)C2)C3)N1c1ccc(Cl)cc1 (stereo not drawn)" unit_spec=µM reported_relation=≥ assay_value=287
molecule="O=C1CSC(C23CC4CC(CC(C4)C2)C3)N1c1cccnc1 (stereo not drawn)" unit_spec=µM reported_relation== assay_value=105
molecule="O=C1CSC(C23CC4CC(CC(C4)C2)C3)N1c1ccc(Cl)c(C(F)(F)F)c1 (stereo not drawn)" unit_spec=µM reported_relation=> assay_value=240
molecule="O=C1CSC(C23CC4CC(CC(C4)C2)C3)N1CCN1CCOCC1 (stereo not drawn)" unit_spec=µM reported_relation== assay_value=140
molecule=Cc1cc(C)nc(N2C(=O)CS[C@H]2C23CC4CC(CC(C4)C2)C3)c1 unit_spec=µM reported_relation== assay_value=44

###

- experiment-summary: Cytotoxicity against CEM cells
- Type: cell-based
- test-parameters: human, CEM (CCRF-CEM) cells
Listed compounds paired with reported CC50
measured-metric: CC50

compound="O=C1CSC(C23CC4CC(CC(C4)C2)C3)N1c1ccncc1 (stereo not drawn)" measured_metric=CC50 assay_value="159 µM"
compound="O=C1CSC(C23CC4CC(CC(C4)C2)C3)N1c1ccccn1 (stereo not drawn)" measured_metric=CC50 assay_value="> 318 µM"
compound="Cc1ccnc(N2C(=O)CSC2C23CC4CC(CC(C4)C2)C3)c1 (stereo not drawn)" measured_metric=CC50 assay_value="> 304 µM"

###

- system-tested: Human immunodeficiency virus type 1 reverse transcriptase (Human immunodeficiency virus 1, UniProt Q72547)
- experiment-summary: Inhibition of HIV1 reverse transcriptase using Poly rA.dT template
pIC50: −log10 of the molar value.
Reported values of pIC50 for individual entries
measured-metric: pIC50

compound=Cc1cc(C)nc(N2C(=O)CS[C@@H]2C23CC4CC(CC(C4)C2)C3)c1 reported_relation== assay_value=4.70
compound="Cc1cccc(N2C(=O)CSC2C23CC4CC(CC(C4)C2)C3)n1 (stereo unspecified)" reported_relation== assay_value=4.37
compound="Cc1ccnc(N2C(=O)CSC2C23CC4CC(CC(C4)C2)C3)c1 (stereo unspecified)" reported_relation== assay_value=4.06
compound="CN(C)CCCN1C(=O)CSC1C12CC3CC(CC(C3)C1)C2 (stereo unspecified)" reported_relation=< assay_value=3.21
compound=Cc1cc(C)nc(N2C(=O)CS[C@H]2C23CC4CC(CC(C4)C2)C3)c1 reported_relation=< assay_value=3.23
compound="CN(C)CCN1C(=O)CSC1C12CC3CC(CC(C3)C1)C2 (stereo unspecified)" reported_relation=< assay_value=3.19
